Data credit: the supplement of paper PMC10567573

Reported protein stability index values for the following variants.
B1: MED27 (parent)
chain: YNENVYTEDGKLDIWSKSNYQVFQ

variants of: B1; assay: protein stability index of a GFP-peptide fusion (GPS, HEK-293T) (PSI 1-6); higher = more stable; details: c terminus: a fixed tail appended;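 further: lentivirally expressed fusions sorted by FACS into six bins by GFP to DsRed ratio, PSI derived from sequencing read proportions per bin multiplied by bin number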
Please reply with the value in numeric form only.

Sample answers from the record:
# MUT, MEAS VALUE
records = [
    ("G10H", 2.61),
    ("T7A", 2.21),
    ("D13P", 2.81),
    ("L12C", 2.33),
]

Measured protein stability index of `Y6D` : 3.3

Measured protein stability index of `S16H` : 1.93

Entry under test: `Y1A` . Its protein stability index was 2.86

// sample `F23E` , its protein stability index was 3.02

Noted for `Y6W` : its protein stability index reads 2.04

Field protein stability index (entry `V5F` ) reads 1.72

# protein stability index (variant: `V22K` ) is 2.4

# protein stability index (variant: `E8H` ) is 2.07
